- target-or-system: HLA-A*11:01
- assay-details: IEDB peptide-MHC binding, purified MHC/direct/fluorescence; filed as Kd, often an IC50 or EC50 that approximates it; bounds were set here for any values at or beyond the usual limits of such assays
- particulars: source organism: Yersinia pestis
metric: Kd

// returns reported Kd for input "LLIDDSFSS"
≥ 20 µM

----------
- target-or-system: HLA-A*02:12
- assay-details: IEDB peptide-MHC binding, purified MHC/direct/fluorescence; filed as Kd, often an IC50 or EC50 that approximates it; bounds were set here for any values at or beyond the usual limits of such assays
- particulars: source organism: Orthohantavirus negraense
pKd: −log10 of the molar value.
metric: pKd

// returns reported pKd for input "RRFTQAIYD"
≤ 4.70
